Target: 6xHis-TLX ligand-binding domain, Q9Y466
Sequence (Q9Y466 155-385): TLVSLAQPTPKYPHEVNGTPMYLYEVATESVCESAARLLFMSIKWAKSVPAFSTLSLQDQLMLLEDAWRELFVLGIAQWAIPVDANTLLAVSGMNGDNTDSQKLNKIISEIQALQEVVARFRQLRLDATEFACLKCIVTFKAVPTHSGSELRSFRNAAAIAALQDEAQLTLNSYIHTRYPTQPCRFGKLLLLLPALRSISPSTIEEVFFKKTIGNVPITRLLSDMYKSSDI
Assay: AlphaScreen or HTRF; ALPHA; atrophin peptide on donor beads, TLX ligand-binding domain on acceptor beads; competition with untagged atrophin peptide
measured-parameter: pEC50
API: returns pEC50 as number; meaning -log10 of concentration in mol/L.

Task: Given the binder PPYADTPALRQLSEYARPHVAFSP (modifications not checked) [atrophin corepressor peptide (untagged)] , what is its reported pEC50?
Result: 5.89

The measured values listed here are drawn from paper PMC9060471.
